// provenance: patent US20240408169A1

Parameter: IC50. Scope: all listed entries.
- Study Target: CyclinE1/CDK2 (Homo sapiens, UniProt P24864)
- Construct: purchased Eurofins, discovery 14-475
- Experiment Summary: Fluorescence Polarization (FP) competitive binding assay, Cyclin E1/Cdk2;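 also: readings taken after two-hour equilibration at room temperature in HEPES buffer with NaCl, DTT, NP-40 and BSA, IC50 fitted from eight-concentration serial dilution series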
- Particulars: 10 nM Cyclin E1/Cdk2, 2 nM FAM probe; average of 2-3 independent experiments; read-out: Cyclin E FP IC50
*1 amine or outer side, *2 acyl side, *3 side chain or, on linkers, in order; H or OH if unused. Where a SMILES comes first, the peptide text is derived from it. Bridges are numbered along the chain shown (N, C = ends). [ ]: non-standard residue; d: D form. The star is where a group is joined. NMehhhLys(Me) = CN([C@@H](CCCCCCCN(C)[*:3])C(=O)[*:2])[*:1]; X211 = Cc1ncc(-c2ccc(Cl)cc2C[C@@H](C(=O)[*:2])N(C)[*:1])s1; X204 = CN([C@@H](Cc1cc(F)ccc1-c1ccnnc1)C(=O)[*:2])[*:1]; cBuCO(3,3-F2-1-CF3) = O=C(C1(C(F)(F)F)CC(F)(F)C1)*; Pro(trans-4-F) = O=C(O)[C@@H]1C[C@@H](F)CN1; Gly(cPr) = N[C@H](C(=O)O)C1CC1
Quantity Kind: IC50 (nM)

[
  {
    "Molecule": "CC(C)C[C@@H]1NC(=O)[C@@H](N(C)C(=O)[C@@H](NC(=O)[C@@H]2C[C@@H](F)CN2C(=O)C2(C(F)(F)F)CC(F)(F)C2)C2CC2)CCCCCCCN(C)C(=O)[C@H](Cc2cc(F)ccc2-c2ccnnc2)N(C)C1=O [Example 279] ({cBuCO(3,3-F2-1-CF3)}-[Pro(trans-4-F)][Gly(cPr)][NMehhhLys(Me)]L[X204]; lactam 3-C)",
    "Unit": "nM",
    "Reported Result": 1920
  },
  {
    "Molecule": "Cc1ncc(-c2ccc(Cl)cc2C[C@H]2C(=O)N(C)CCCCCCC[C@H](N(C)C(=O)[C@@H](NC(=O)[C@@H]3C[C@@H](F)CN3C(=O)C3(C(F)(F)F)CC(F)(F)C3)C3CC3)C(=O)N[C@@H](CC(C)C)C(=O)N2C)s1 [Example 75] ({cBuCO(3,3-F2-1-CF3)}-[Pro(trans-4-F)][Gly(cPr)][NMehhhLys(Me)]L[X211]; lactam 3-C)",
    "Unit": "nM",
    "Reported Result": 440
  },
  {
    "Molecule": "CC[C@H](NC(=O)[C@@H]1C[C@@H](F)CN1C(=O)C1(C(F)(F)F)CC1)C(=O)N[C@H]1CC=CCCCCN(C)C(=O)[C@H](Cc2cc(Cl)ccc2Cl)N(C)C(=O)[C@H](CC(C)C)NC1=O",
    "Unit": "nM",
    "Reported Result": 100
  },
  {
    "Molecule": "CC(C)C[C@@H]1NC(=O)[C@@H](N(C)C(=O)[C@@H](NC(=O)[C@@H]2C[C@@H](F)CN2C(=O)C2(C(F)(F)F)CCC2)C2CC2)CC=CCCCCN(C)C(=O)[C@H](Cc2cc(F)ccc2-c2cnn(C)c2)N(C)C1=O",
    "Unit": "nM",
    "Reported Result": 240
  }
]

* * *

Parameter: IC50. Scope: all listed entries.
- Study Target: CyclinB1/CDK1 (Homo sapiens)
- Construct: purchased Eurofins, discovery 14-450
- Experiment Summary: Fluorescence Polarization (FP) competitive binding assay, Cyclin B1/Cdk1;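 also: fluorescence polarization read after equilibration at room temperature, with IC50 taken from serially diluted dose-response curves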
- Particulars: 10 nM Cyclin B1/Cdk1, 2 nM FAM probe; average of 2-3 independent experiments; read-out: Cyclin B FP IC50
*1 amine or outer side, *2 acyl side, *3 side chain or, on linkers, in order; H or OH if unused. Where a SMILES comes first, the peptide text is derived from it. Bridges are numbered along the chain shown (N, C = ends). [ ]: non-standard residue; d: D form. The star is where a group is joined. X85 = CN([C@@H](Cc1cc(Cl)ccc1-c1ccc([C@]23CCOC[C@H]2C3)nc1)C(=O)[*:2])[*:1]; X79 = CC(C)n1cc(-c2ccc(Cl)cc2C[C@@H](C(=O)[*:2])N(C)[*:1])cn1; NMehhhLys(Me) = CN([C@@H](CCCCCCCN(C)[*:3])C(=O)[*:2])[*:1]; NMe(hhhLys) = CN([C@@H](CCCCCCCN[*:3])C(=O)[*:2])[*:1]; X41 = CN([C@@H](Cc1cc(Cl)cc2c1ccn2C)C(=O)[*:2])[*:1]; cBuCO(3,3-F2-1-CF3) = O=C(C1(C(F)(F)F)CC(F)(F)C1)*; NMePhe(2,5-Cl2) = CN[C@@H](Cc1cc(Cl)ccc1Cl)C(=O)O; Pro(trans-4-F) = O=C(O)[C@@H]1C[C@@H](F)CN1; Gly(cPr) = N[C@H](C(=O)O)C1CC1

[
  {
    "Compound": "CC(C)C[C@@H]1NC(=O)[C@@H](N(C)C(=O)[C@@H](NC(=O)[C@@H]2C[C@@H](F)CN2C(=O)C2(C(F)(F)F)CC(F)(F)C2)C2CC2)CC=CCCCCNC(=O)[C@H](Cc2cc(Cl)ccc2C2=CCOCC2)N(C)C1=O [Example 17]",
    "IC50 / nM": 20
  },
  {
    "Compound": "CC(C)C[C@@H]1NC(=O)[C@@H](N(C)C(=O)[C@@H](NC(=O)[C@@H]2C[C@@H](F)CN2C(=O)C2(C(F)(F)F)CC(F)(F)C2)C2CC2)CCCCCCCN(C)C(=O)[C@H](Cc2cc(Cl)cc3c2ccn3C)N(C)C1=O [Example 393] ({cBuCO(3,3-F2-1-CF3)}-[Pro(trans-4-F)][Gly(cPr)][NMehhhLys(Me)]L[X41]; lactam 3-C)",
    "IC50 / nM": 47
  },
  {
    "Compound": "CC(C)C[C@@H]1NC(=O)[C@@H](N(C)C(=O)[C@@H](NC(=O)[C@@H]2C[C@@H](F)CN2C(=O)C2(C(F)(F)F)CC(F)(F)C2)C2CC2)CC=CCCCCNC(=O)[C@H](Cc2cc(Cl)ccc2C2=CCN(C)CC2)N(C)C1=O (single isomer, unassigned) [Example 56-P2]",
    "IC50 / nM": 30
  },
  {
    "Compound": "CC(C)C[C@@H]1NC(=O)[C@@H](N(C)C(=O)[C@@H](NC(=O)[C@@H]2C[C@@H](F)CN2C(=O)C2(C(F)(F)F)CC(F)(F)C2)C2CC2)CCCCCCCN(C)C(=O)[C@H](Cc2cc(Cl)ccc2-c2ccc([C@]34CCOC[C@H]3C4)nc2)N(C)C1=O [Example 369] ({cBuCO(3,3-F2-1-CF3)}-[Pro(trans-4-F)][Gly(cPr)][NMehhhLys(Me)]L[X85]; lactam 3-C)",
    "IC50 / nM": 20
  },
  {
    "Compound": "CC(=O)N1CC=C(c2ccc(Cl)cc2C[C@H]2C(=O)N(C)CCCCC=CC[C@H](N(C)C(=O)[C@@H](NC(=O)[C@@H]3C[C@@H](F)CN3C(=O)C3(C(F)(F)F)CC(F)(F)C3)C3CC3)C(=O)N[C@@H](CC(C)C)C(=O)N2C)CC1 [Example 31]",
    "IC50 / nM": 20
  },
  {
    "Compound": "CC(C)C[C@@H]1NC(=O)[C@@H](N(C)C(=O)[C@@H](NC(=O)[C@@H]2C[C@@H](F)CN2C(=O)C2(C(F)(F)F)CC(F)(F)C2)C2CC2)CC=CCCCCN(C)C(=O)[C@H](Cc2cc(Cl)ccc2-c2cnn(C)c2)N(C)C1=O [Example 29]",
    "IC50 / nM": 20
  },
  {
    "Compound": "CC(C)C[C@@H]1NC(=O)[C@@H](N(C)C(=O)[C@@H](NC(=O)[C@@H]2C[C@@H](F)CN2C(=O)C2(C(F)(F)F)CC(F)(F)C2)C2CC2)CC=CCCCCNC(=O)[C@H](Cc2cc(Cl)ccc2C2=CCN(C(=O)C(C)C)CC2)N(C)C1=O [Example 90]",
    "IC50 / nM": 20
  },
  {
    "Compound": "CC(C)C[C@@H]1NC(=O)[C@@H](N(C)C(=O)[C@@H](NC(=O)[C@@H]2C[C@@H](F)CN2C(=O)C2(C(F)(F)F)CC(F)(F)C2)C2CC2)CCCCCCCN(C)C(=O)[C@H](Cc2cc(Cl)ccc2-c2cnn(C(C)C)c2)N(C)C1=O [Example 111] ({cBuCO(3,3-F2-1-CF3)}-[Pro(trans-4-F)][Gly(cPr)][NMehhhLys(Me)]L[X79]; lactam 3-C)",
    "IC50 / nM": 20
  },
  {
    "Compound": "CC(C)C[C@@H]1NC(=O)[C@@H](N(C)C(=O)[C@@H](NC(=O)[C@@H]2C[C@@H](F)CN2C(=O)C2(C(F)(F)F)CCC2)C2CC2)CC=CCCCCNC(=O)[C@H](Cc2cc(Cl)cnc2OC(C)C)N(C)C1=O (single isomer, unassigned) [Example 136-P1]",
    "IC50 / nM": 20
  },
  {
    "Compound": "CC(C)C[C@@H]1NC(=O)[C@@H](N(C)C(=O)[C@@H](NC(=O)[C@@H]2C[C@@H](F)CN2C(=O)C2(C(F)(F)F)CC(F)(F)C2)C2CC2)CCCCCCCNC(=O)[C@H](Cc2cc(Cl)ccc2Cl)N(C)C1=O [Example 7] ({cBuCO(3,3-F2-1-CF3)}-[Pro(trans-4-F)][Gly(cPr)][NMe(hhhLys)]L[NMePhe(2,5-Cl2)]; lactam 3-C)",
    "IC50 / nM": 20
  }
]
